meta.source: the supplement of paper PMC10567573

B1: SPOPL (parent)
chain: AKREETKAMESQRAYRFVQGKDWG

- Variants of: B1
- assay text: protein stability index of a GFP-peptide fusion (GPS, HEK-293T) (PSI 1-6); higher = more stable;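 note: lentivirally expressed fusions sorted by FACS into six bins by GFP to DsRed ratio, PSI derived from sequencing read proportions per bin multiplied by bin number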
- cond: c terminus: a fixed tail appended
measure name: protein stability index
Write the value as a bare number.

Name the recorded protein stability index of the variant listed here: AKREETKAFESQRAYRFVQGKDWG [M9F]
2.79

Name the recorded protein stability index of the variant listed here: AKRSETKAMESQRAYRFVQGKDWG [E4S]
3.05

Name the recorded protein stability index of the variant listed here: AKREETKAMESQRAYRFVQGKSWG [D22S]
3.42

Name the recorded protein stability index of the variant listed here: AKDEETKAMESQRAYRFVQGKDWG [R3D]
3.67

Name the recorded protein stability index of the variant listed here: AKREETKAMEMQRAYRFVQGKDWG [S11M]
2.33

Name the recorded protein stability index of the variant listed here: AKEEETKAMESQRAYRFVQGKDWG [R3E]
4.03

Name the recorded protein stability index of the variant listed here: AKREETKAMESQRAYRFRQGKDWG [V18R]
3.99

Name the recorded protein stability index of the variant listed here: AKREETKAMESQRAYRFVQGKDFG [W23F]
3.53

Name the recorded protein stability index of the variant listed here: AKREETKAMESQRPYRFVQGKDWG [A14P]
2.83

Name the recorded protein stability index of the variant listed here: AKREETKAMEGQRAYRFVQGKDWG [S11G]
2.54

Name the recorded protein stability index of the variant listed here: AKREEKKAMESQRAYRFVQGKDWG [T6K]
2.89

Name the recorded protein stability index of the variant listed here: AKREETFAMESQRAYRFVQGKDWG [K7F]
2.9

Name the recorded protein stability index of the variant listed here: RKREETKAMESQRAYRFVQGKDWG [A1R]
2.49

Name the recorded protein stability index of the variant listed here: AKREETKAMESYRAYRFVQGKDWG [Q12Y]
2.69
